Target: TNKS2 (Homo sapiens)
Sequence (Q9H2K2 1-1166): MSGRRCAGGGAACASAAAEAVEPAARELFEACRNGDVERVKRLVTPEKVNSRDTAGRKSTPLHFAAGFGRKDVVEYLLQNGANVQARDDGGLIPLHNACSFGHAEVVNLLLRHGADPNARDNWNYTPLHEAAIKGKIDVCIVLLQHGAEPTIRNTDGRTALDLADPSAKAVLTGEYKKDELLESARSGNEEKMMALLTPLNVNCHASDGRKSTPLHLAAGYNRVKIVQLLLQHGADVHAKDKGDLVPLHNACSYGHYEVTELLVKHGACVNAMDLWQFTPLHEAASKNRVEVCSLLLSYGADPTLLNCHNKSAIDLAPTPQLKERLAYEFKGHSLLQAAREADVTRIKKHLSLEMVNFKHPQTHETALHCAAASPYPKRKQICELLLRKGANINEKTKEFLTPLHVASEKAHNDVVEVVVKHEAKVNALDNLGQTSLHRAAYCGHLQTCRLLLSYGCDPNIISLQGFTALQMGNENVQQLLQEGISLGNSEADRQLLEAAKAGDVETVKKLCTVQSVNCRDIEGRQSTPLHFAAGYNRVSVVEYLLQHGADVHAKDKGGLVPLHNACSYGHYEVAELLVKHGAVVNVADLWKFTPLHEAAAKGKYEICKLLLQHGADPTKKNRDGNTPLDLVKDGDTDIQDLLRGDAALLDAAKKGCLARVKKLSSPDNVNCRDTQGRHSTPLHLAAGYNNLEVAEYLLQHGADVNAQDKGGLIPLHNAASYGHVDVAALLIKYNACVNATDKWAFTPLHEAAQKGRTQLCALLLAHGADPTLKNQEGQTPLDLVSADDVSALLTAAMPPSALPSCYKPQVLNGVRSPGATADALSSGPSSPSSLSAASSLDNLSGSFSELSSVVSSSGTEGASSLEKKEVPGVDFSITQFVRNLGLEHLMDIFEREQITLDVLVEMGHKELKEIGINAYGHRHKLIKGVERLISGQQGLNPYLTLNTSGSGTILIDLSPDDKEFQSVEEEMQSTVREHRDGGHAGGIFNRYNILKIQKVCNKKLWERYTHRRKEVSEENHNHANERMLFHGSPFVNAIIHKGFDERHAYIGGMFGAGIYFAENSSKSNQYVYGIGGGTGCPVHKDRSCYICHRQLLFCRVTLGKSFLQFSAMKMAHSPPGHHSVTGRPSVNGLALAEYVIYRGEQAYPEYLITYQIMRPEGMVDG
Experiment: biochemical
assayMetric: IC50

Worked cases, answers included:
cpdSmiles	target	IC50
Cc1ccc2c(c1)sc1nnc(NCc3ccc(Cl)cc3)n12	TNKS2 (Homo sapiens)	> 100 µM
CSc1nnc2sc3cc(C)ccc3n12	TNKS2 (Homo sapiens)	> 100 µM
Cc1ccc2c(c1)sc1nnc(/N=C\c3ccc(Cl)cc3)n12	TNKS2 (Homo sapiens)	> 100 µM
Cc1ccc2c(c1)sc1nnc(SCc3ccc(Cl)cc3)n12	TNKS2 (Homo sapiens)	> 100 µM

Turning now to a further record.
Query string: Using TNKS2 (Homo sapiens) as the test system, report measured IC50 of Nc1nnc2sc3cc(O)ccc3n12 .
Result string: ~0.2 µM

====

Molecular target: TNKS1 (Homo sapiens, UniProt O95271)
Sequence (O95271 whole entry): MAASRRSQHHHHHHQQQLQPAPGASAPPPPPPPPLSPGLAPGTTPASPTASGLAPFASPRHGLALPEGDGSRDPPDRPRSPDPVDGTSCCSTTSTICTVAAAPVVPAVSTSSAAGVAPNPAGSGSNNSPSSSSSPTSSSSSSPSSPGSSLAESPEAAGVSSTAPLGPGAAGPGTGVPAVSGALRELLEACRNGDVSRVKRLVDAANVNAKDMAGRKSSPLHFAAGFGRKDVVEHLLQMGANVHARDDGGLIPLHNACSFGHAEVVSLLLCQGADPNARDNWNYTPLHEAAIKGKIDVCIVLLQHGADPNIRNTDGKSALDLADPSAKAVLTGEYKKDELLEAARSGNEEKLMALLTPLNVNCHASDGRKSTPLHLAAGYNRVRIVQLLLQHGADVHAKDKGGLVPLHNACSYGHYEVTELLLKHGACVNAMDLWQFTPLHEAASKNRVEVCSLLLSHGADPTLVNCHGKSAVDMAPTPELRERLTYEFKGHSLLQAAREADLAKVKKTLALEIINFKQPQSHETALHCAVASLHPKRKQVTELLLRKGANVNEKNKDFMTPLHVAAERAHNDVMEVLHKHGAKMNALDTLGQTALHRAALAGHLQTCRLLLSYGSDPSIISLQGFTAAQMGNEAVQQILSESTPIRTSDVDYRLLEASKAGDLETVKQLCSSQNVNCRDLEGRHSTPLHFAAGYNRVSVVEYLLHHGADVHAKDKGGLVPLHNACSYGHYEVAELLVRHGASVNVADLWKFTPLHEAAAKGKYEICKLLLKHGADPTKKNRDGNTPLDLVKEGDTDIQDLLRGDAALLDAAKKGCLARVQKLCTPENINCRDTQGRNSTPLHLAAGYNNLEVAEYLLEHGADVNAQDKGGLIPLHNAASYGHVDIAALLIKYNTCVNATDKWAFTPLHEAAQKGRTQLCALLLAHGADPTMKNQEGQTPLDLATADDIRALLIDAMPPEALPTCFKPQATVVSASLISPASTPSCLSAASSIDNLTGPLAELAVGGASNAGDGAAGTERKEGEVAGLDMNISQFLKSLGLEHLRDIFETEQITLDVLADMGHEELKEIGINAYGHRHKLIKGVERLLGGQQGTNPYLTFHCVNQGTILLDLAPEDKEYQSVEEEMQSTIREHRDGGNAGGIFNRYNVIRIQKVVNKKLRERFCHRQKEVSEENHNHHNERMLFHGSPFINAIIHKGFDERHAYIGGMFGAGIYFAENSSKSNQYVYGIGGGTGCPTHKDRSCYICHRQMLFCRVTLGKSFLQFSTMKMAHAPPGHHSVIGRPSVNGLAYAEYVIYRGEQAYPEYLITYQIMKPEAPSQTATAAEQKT
assayMetric: pIC50
Hey, just a heads up that pIC50 is the negative log base 10 of the concentration in molar.

cpdSmiles	endpointValue
COc1ccc(OC)c2c1sc1nnc(N)n12	5.27

Turning now to a further record.
Query string: Using TNKS1 (Homo sapiens, UniProt O95271) as the test system, report measured pIC50 of Oc1ccc2c(c1)sc1nncn12 .
Result string: 5.80
